Target: the molecule itself
Test: cross-linking; detergent-free membrane fraction of sho1Δ cells expressing a Cys mutant of HA-Sho1*; 0.2 mM bifunctional thiol crosslinker (o-PDM, p-PDM or BMH), 20 min, 25 °C; SDS–PAGE, anti-HA blot
measuredAttribute: stoichiometry N

IN: # stoichiometry N lookup, item HA-Sho1* T66C I94C (natural protein, Saccharomyces cerevisiae, UniProt P40073 1-367, looked up, Sho1, S. cerevisiae, Cys-less (C78S C85S) with Cys in TM2 and TM3; source: S. cerevisiae KT079 (sho1Δ), GAL1 promoter, in membrane fraction; not shown: HA, N-terminal, kept) MSISSKIRPTPRKPSRMATDHSFKMKKFYADPFAISSISLAIVSWVIAIGGSISSASTNESFPRFCWWGIVYQFLIISSLMLFYSFDLVDHYRCFITTSIAVAFVYNTNSATNLVYADGPKKAAASAGVILLSIINLIWILYYGGDNASPTNRWIDSFSIKGIRPSPLENSLHRARRRGNRNTTPYQNNVYNDAIRDSGYATQFDGYPQQQPSHTNYVSSTALAGFENTQPNTSEAVNLHLNTLQQRINSASNAKETNDNSNNQTNTNIGNTFDTDFSNGNTETTMGDTLGLYSDIGDDNFIYKAKALYPYDADDDDAYEISFEQNEILQVSDIEGRWWKARRANGETGIIPSNYVQLIDGPEEMHR
OUT: 3

IN: # stoichiometry N lookup, item HA-Sho1* G50C A124C (natural protein, Saccharomyces cerevisiae, UniProt P40073 1-367, looked up, Sho1, S. cerevisiae, Cys-less (C78S C85S) with Cys in TM1 and TM4; also called G/C A/C; source: S. cerevisiae KT079 (sho1Δ), GAL1 promoter, in membrane fraction; not shown: HA, N-terminal, kept) MSISSKIRPTPRKPSRMATDHSFKMKKFYADPFAISSISLAIVSWVIAICGSISSASTNESFPRFTWWGIVYQFLIISSLMLFYSFDLVDHYRIFITTSIAVAFVYNTNSATNLVYADGPKKACASAGVILLSIINLIWILYYGGDNASPTNRWIDSFSIKGIRPSPLENSLHRARRRGNRNTTPYQNNVYNDAIRDSGYATQFDGYPQQQPSHTNYVSSTALAGFENTQPNTSEAVNLHLNTLQQRINSASNAKETNDNSNNQTNTNIGNTFDTDFSNGNTETTMGDTLGLYSDIGDDNFIYKAKALYPYDADDDDAYEISFEQNEILQVSDIEGRWWKARRANGETGIIPSNYVQLIDGPEEMHR
OUT: 2

IN: # stoichiometry N lookup, item HA-Sho1* I94C T112C (natural protein, Saccharomyces cerevisiae, UniProt P40073 1-367, looked up, Sho1, S. cerevisiae, Cys-less (C78S C85S) with two Cys in TM3; source: S. cerevisiae KT079 (sho1Δ), GAL1 promoter, in membrane fraction; not shown: HA, N-terminal, kept) MSISSKIRPTPRKPSRMATDHSFKMKKFYADPFAISSISLAIVSWVIAIGGSISSASTNESFPRFTWWGIVYQFLIISSLMLFYSFDLVDHYRCFITTSIAVAFVYNTNSACNLVYADGPKKAAASAGVILLSIINLIWILYYGGDNASPTNRWIDSFSIKGIRPSPLENSLHRARRRGNRNTTPYQNNVYNDAIRDSGYATQFDGYPQQQPSHTNYVSSTALAGFENTQPNTSEAVNLHLNTLQQRINSASNAKETNDNSNNQTNTNIGNTFDTDFSNGNTETTMGDTLGLYSDIGDDNFIYKAKALYPYDADDDDAYEISFEQNEILQVSDIEGRWWKARRANGETGIIPSNYVQLIDGPEEMHR
OUT: 3
